Data provenance: ChEMBL document CHEMBL1961873

# TARGET_ENTITY: Serine/threonine-protein kinase TBK1 (Homo sapiens) (UniProt Q9UHD2);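 also: values are mean inhibition of TBK1, screened as part of the GSK published kinase inhibitor set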
# Sequence (Q9UHD2 whole entry): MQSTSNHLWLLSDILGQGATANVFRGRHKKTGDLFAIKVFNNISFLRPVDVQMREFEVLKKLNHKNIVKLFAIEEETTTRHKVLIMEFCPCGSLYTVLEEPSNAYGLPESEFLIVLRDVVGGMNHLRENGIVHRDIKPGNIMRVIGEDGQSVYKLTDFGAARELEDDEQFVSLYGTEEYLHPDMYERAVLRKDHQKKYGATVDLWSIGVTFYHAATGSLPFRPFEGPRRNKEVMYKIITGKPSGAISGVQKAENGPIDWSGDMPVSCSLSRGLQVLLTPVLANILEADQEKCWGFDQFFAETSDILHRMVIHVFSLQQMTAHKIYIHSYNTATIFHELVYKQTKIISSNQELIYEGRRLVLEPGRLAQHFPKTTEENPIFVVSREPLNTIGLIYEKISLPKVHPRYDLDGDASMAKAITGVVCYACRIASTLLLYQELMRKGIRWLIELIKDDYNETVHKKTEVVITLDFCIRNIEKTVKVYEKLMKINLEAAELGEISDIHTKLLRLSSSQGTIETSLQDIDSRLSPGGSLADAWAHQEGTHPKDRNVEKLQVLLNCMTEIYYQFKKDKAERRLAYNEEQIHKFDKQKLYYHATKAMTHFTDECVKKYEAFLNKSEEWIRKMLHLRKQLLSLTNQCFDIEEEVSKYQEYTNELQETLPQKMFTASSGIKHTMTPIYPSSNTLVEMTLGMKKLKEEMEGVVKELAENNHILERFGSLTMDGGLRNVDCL
# EXPERIMENTAL_CONTEXT: at 1 µM
Assign classes using reported inhibition values and the ranges class A: < 4%; class B: ≥ 4% and < 10%; class C: ≥ 10%, please.

INSERT INTO measurements (structure_as_smiles, label_value) VALUES
  ('NC(=O)c1sc(-n2cnc3ccc(C(F)(F)F)cc32)cc1OCc1ccccc1Br', 'class A'),
  ('COc1cccc(-c2c[nH]c3c(N/N=C/c4ccncc4)ncnc23)c1', 'class C'),
  ('COC(=O)c1sc(-n2cnc3cc(OC)c(OC)cc32)cc1OCc1ccccc1C(F)(F)F', 'class C'),
  ('COc1cc(Nc2nccc(Nc3ccc4c(C)n[nH]c4c3)n2)cc(OC)c1OC', 'class C'),
  ('CNC(=O)c1cc(-c2ccc(F)cc2)cc(-c2ccc(S(=O)(=O)N3CCCC3)cc2)c1N', 'class A'),
  ('CCOc1ccc2c(-c3ccnc(Nc4cccc(C(F)(F)F)c4)n3)cnn2n1', 'class C'),
  ('CCCN(CCS(C)(=O)=O)Cc1ccc(-c2ccc3ncnc(Nc4ccc(OCc5cccc(F)c5)c(Cl)c4)c3c2)o1', 'class B'),
  ('COc1ccc(CNC(=O)c2ccc(-c3cc(-c4nnc(C)o4)ccc3C)cc2)cc1', 'class B'),
  ('CS(=O)(=O)CCNCc1coc(-c2ccc3ncnc(Nc4ccc(OCc5ccccc5)cc4)c3c2)c1', 'class A'),
  ('CCn1c(-c2nonc2N)nc2c(C#CC(C)(C)O)nc(OC[C@H](N)c3ccccc3)cc21', 'class B'),
  ('COc1cc2ncn(-c3cc(OCc4ccccc4C(F)(F)F)c(C(=O)N(C)C)s3)c2cc1OC', 'class A'),
  ('Nc1nc(-c2ccc(F)cc2)c(-c2ccc3ncccc3n2)s1', 'class B'),
  ('COc1ccc2c(-c3ccnc(Nc4cccc(OC(F)(F)F)c4)n3)cnn2n1', 'class C'),
  ('CCN(CC)S(=O)(=O)c1ccc(OC)c(Nc2ncc(-c3ccccc3)o2)c1', 'class B');
